Compiled literature Ki, tested on Adenosine receptor A1 (Bos taurus, UniProt P28190).
Sequence (P28190 whole entry): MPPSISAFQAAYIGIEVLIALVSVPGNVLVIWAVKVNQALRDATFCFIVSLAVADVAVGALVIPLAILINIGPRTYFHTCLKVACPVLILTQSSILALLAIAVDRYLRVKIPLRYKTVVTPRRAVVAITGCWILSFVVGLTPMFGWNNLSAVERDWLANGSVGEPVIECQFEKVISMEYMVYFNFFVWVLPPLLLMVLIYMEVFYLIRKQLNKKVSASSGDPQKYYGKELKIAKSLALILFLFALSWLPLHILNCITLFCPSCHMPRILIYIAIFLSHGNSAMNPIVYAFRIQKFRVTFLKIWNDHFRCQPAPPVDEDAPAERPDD
recorded metric: Ki (nM)

Some compounds with recorded Ki:
> print(dat)
                                   compound  measurement.units  measured
1  OC[C@H]1O[C@@H](n2cnc3c(NC4CCCC4)nc(Cl)nc32)[C@H](O)[C@@H]1O                 nM      0.35
2      CCNc1nc(-c2ccccc2)nc2c1nnn2Cc1ccccc1                 nM        91
3   Cc1ccc2c(N=[N+]=[N-])c(Cc3ccccc3)cnc2n1                 nM      3340
4  O=C1CC(c2ccccc2)Cc2[nH]c(=O)c(S(=O)(=O)c3ccccc3)cc21 (configuration not stated)                 nM      5800

I. Cc1ccc2c(O)cc(-c3ccccc3)nc2n1
II. OCCCNc1nc(-c2ccccc2)nc2c1nnn2Cc1ccccc1Cl
III. CCOC(=O)c1cnc2c(cnn2CC(Cl)c2ccccc2)c1NCCc1cccc(Cl)c1 (configuration not stated)
IV. COc1ccc(C(=O)Nc2nc(-c3ccccc3)nc3c2nnn3Cc2ccccc2F)cc1
Hey, quick one: sort these by Ki, largest value first please. Quick reminder: the answer is the labels in the order asked.
III, II, IV, I

---

pKi: −log10 of the molar value.
Compiled literature pKi, tested on UniProt:P28190.
recorded metric: pKi

Some compounds with recorded pKi:
> print(dat)
                                   compound  recorded.metric  measured
1  CSc1nc(NC2CCCCC2)c2cnn(CC(Cl)c3ccccc3)c2n1 (stereo unspecified)              pKi      5.20
2  CCOC(=O)c1cnc2c(cnn2CC(Cl)c2ccccc2)c1NCCc1ccc(Cl)cc1 (stereo unspecified)              pKi      7.70
3      Nc1ccc(CCNc2ncnc3c2nnn3Cc2ccccc2)cc1              pKi      5.81
4      Clc1cccc(Nc2ncnc3c2nnn3CCc2ccccc2)c1              pKi      5.48
5  O=c1n(-c2ccccc2)nc2c(NC3CCCCC3)nc3ccccc3n12              pKi      8.80
6  Nc1nc(Cl)nc2c1ncn2[C@@H]1O[C@H](CO)[C@@H](O)[C@H]1O              pKi      7.60

1. Oc1nc2ccccc2c2cn(-c3cccc(F)c3)nc12
2. CCOC(=O)c1cnc2c(cnn2CC(Cl)c2ccccc2)c1NCCc1ccccc1 (stereo unspecified)
3. COc1ccc(-n2nc3c(NC(=O)c4ccccc4)nc4ccccc4n3c2=O)cc1
4. CC(=O)CNc1nc(-c2ccccc2)nc2nc(C)cn12
Please put the entries in order of rising pKi. Quick reminder: the answer is the labels in the order asked.
3, 1, 2, 4
(3: 6.00, 1: 6.23, 2: 7.30, 4: 7.92)

---

Compiled literature Ki, tested on Adenosine receptor A1 (Bos taurus, UniProt P28190).
recorded metric: Ki (nM)

Some compounds with recorded Ki:
> print(dat)
                                   compound  measured
1       Nc1ccc2c(O)c(C(=O)NCc3ccccc3)cnc2n1       970
2            Oc1nc2ccccc2n2nc(-c3cccs3)nc12      2940
3         Nc1[nH]c2ccccc2c2nc(C3CCCC3)nc1-2       290
4  Cc1cccc(-n2cc3c(n2)c(NC2CCCC2)nc2ccccc23)c1      40.7
5    Nc1nc2ccccc2n2c(=O)n(-c3ccc(O)cc3)nc12       116
6                  Nc1[nH]c2ccccc2c2ncnc1-2      1700

A. CCOC(=O)c1cnc2c(cnn2CC(Cl)c2ccccc2)c1N1CCCC1 (stereo unspecified)
B. CCCNc1nc(-c2ccccc2)nc2c1nnn2Cc1ccccc1
C. Cc1cccc(-n2cc3c(n2)c(=O)[nH]c2ccccc23)c1
Hey, quick one: sort these by Ki, largest value first please. Quick reminder: the answer is the labels in the order asked.
C, A, B
(C: 830 nM, A: 98.2 nM, B: 37 nM)

I. CCOC(=O)c1cnc2c(cnn2CC(Cl)c2ccccc2)c1NC1CC1 (stereo unspecified)
II. Cc1nnc2n(C)c3ccccc3n2c1=O
III. CC(C)OC(=O)c1cnc2c(cnn2CC(Cl)c2ccccc2)c1NCCc1ccccc1 (stereo unspecified)
Hey, quick one: sort these by Ki, largest value first please. Quick reminder: the answer is the labels in the order asked.
II, I, III

A. OC1CCC(Nc2nc(-c3ccccc3)nc3c2nnn3Cc2ccccc2F)CC1 (stereo unspecified)
B. Oc1cc(-c2ccccc2)nc2nc(NC3CCCCC3)ccc12
# argmax over Ki for candidates A and B Write the label of whichever entry you select.
B
(B: 79.4 nM, A: 1.85 nM)

A. Cc1ccc2c(S)c(Cc3ccccc3)cnc2n1
B. O=C(Nc1ccccc1)Nc1nc2ccccc2c2cn(-c3ccccc3)nc12
# argmax over Ki for candidates A and B Write the label of whichever entry you select.
A
(A: 6330 nM, B: 1500 nM)

---

Compiled literature Ki, tested on Adenosine receptor A1 (Bos taurus, UniProt P28190).
recorded metric: Ki (µM)

Some molecules with recorded Ki:
> print(dat)
                                   molecule  measured
1  CNC(=O)[C@H]1O[C@@H](n2cnc3c(NCc4cccc(I)c4)ncnc32)[C@H](O)[C@@H]1O    0.0331
2        Cn1c2ccccc2n2c(=O)c(-c3ccco3)nnc12     0.794
3                Oc1cc(-c2ccccc2)nc2ncccc12    0.0158

1. O=c1n(-c2cccc(F)c2)nc2c(NC3CCCC3)nc3ccccc3n12
2. CCOC(=O)c1cnc2c(cnn2CC(Cl)c2ccccc2)c1NCCc1ccccc1F (stereo not drawn)
# argmax over Ki for candidates 1 and 2 Write the label of whichever entry you select.
2
(2: 0.0158 µM, 1: 0.001 µM)

a. Cc1ccc2c(O)c(C(=O)NCc3ccco3)cnc2n1
b. C[C@]1(O)C(n2cnc3c(N)nc(Cl)nc32)O[C@H](CO)[C@H]1O (stereo partly drawn)
# argmax over Ki for candidates a and b Write the label of whichever entry you select.
a
(a: 1.35 µM, b: 0.35 µM)

P. CCCOC(=O)c1cnc2c(cnn2CC(Cl)c2ccccc2)c1NCc1ccccc1 (stereo not drawn)
Q. c1ccc(Cn2nnc3c(NC4CCCCC4)nc(-c4ccccc4)nc32)cc1
R. c1ccc(-n2cc3c(n2)c(NC2CCCCC2)nc2ccccc23)cc1
Please put the entries in order of rising Ki. Quick reminder: the answer is the labels in the order asked.
Q, R, P

a. Cc1cn2c(NC(=O)c3ccccc3)nc(-c3ccccc3)nc2n1
b. Oc1cc(-c2ccccc2)nc2nc(Cl)ccc12
# argmax over Ki for candidates a and b Write the label of whichever entry you select.
a

---

Compiled literature Ki, tested on Adenosine receptor A1 (Bos taurus, UniProt P28190).
recorded metric: Ki (nM)

Some compounds with recorded Ki:
> print(dat)
                                   compound  measured
1  CC(C)OC(=O)c1cnc2c(cnn2CC(Cl)c2ccccc2)c1N1CCOCC1 (stereo not given)      2000
2  c1ccc(Cn2nnc3c(NC4CCCC4)nc(-c4ccccc4)nc32)cc1        11
3          Cc1ccc2c(O)cc(-c3ccc(N)cc3)nc2n1      6.31

I. CCC(C)OC(=O)c1cnc2c(cnn2CC(Cl)c2ccccc2)c1NC1CC1 (stereo not given)
II. O=c1n(-c2ccccc2)nc2c(NC3CCCC3)nc3ncccc3n12
Problem: Given the entries I and II , determine which has the lower reported Ki. Write the label of whichever entry you select.
II
(II: 0.47 nM, I: 200 nM)

a. Nc1cccc2c1nc(N(C(=O)c1ccccc1)C(=O)c1ccccc1)c1nn(-c3ccccc3)c(=O)n12
b. COC(=O)c1cnc2c(cnn2CC(Cl)c2ccccc2)c1NCCc1ccc(OC)cc1 (stereo not given)
c. C[C@@]1(O)[C@H](O)[C@@H](CO)O[C@H]1n1cnc2c(NCc3ccccc3)ncnc21
d. CCc1cn2c(NC(=O)C3CCCC3)nc(-c3ccccc3)nc2n1
Hey, quick one: sort these by Ki, largest value first please. Quick reminder: the answer is the labels in the order asked.
c, a, b, d

---

pKi: −log10 of the molar value.
Compiled literature pKi, tested on UniProt:P28190.
recorded metric: pKi

> print(dat)
                                 molecule  measured
1  CCOc1ccc(-n2nc3c(N)nc4ccccc4n3c2=O)cc1      6.27

A. c1ccc(CCn2nnc3c(NC4CCCCC4)ncnc32)cc1
B. C[C@@]1(O)[C@@H](CO)O[C@@H](n2cnc3c(N)ncnc32)[C@@H]1O
# argmax over pKi for candidates A and B Write the label of whichever entry you select.
A
